assay: Octanol/water partition coefficient
Measure: logP

O=c1[nH]cnc2nn(Cc3c(F)cccc3Cl)cc12 0.93
O=c1[nH]cnc2nn(Cc3ccccc3Br)cc12 0.56
Fc1cccc(F)c1Cn1cc2c(=S)[nH]cnc2n1 1.57
S=c1[nH]cnc2nn(Cc3ccccc3I)cc12 1.4
FC(F)(F)c1ccccc1Cn1cc2c(=S)[nH]cnc2n1 1.6

a = O=c1[nH]cnc2nn(Cc3ccccc3C(F)(F)F)cc12
b = O=c1[nH]cnc2nn(Cc3ccc(Cl)cc3Cl)cc12
Could you kindly indicate whether a or b has the higher logP value? Write down the label attached to your selection.
b
(b: 1.68, a: 1.08)
